testTarget: recombinant human IL-17AA (Homo sapiens, UniProt Q16552)
Sequence (Q16552 24-155): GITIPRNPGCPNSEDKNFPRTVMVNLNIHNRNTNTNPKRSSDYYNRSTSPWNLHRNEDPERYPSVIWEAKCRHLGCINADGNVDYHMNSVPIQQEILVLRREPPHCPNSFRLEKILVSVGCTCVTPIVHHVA
experimentSummary: IL-6 release from NHDF cells, IL-17AA plus TNF-α stimulation
Format: cell-based
settings: NHDF cells, IL-17AA 30 pM plus TNF-α 6 pM, 24 hours, IL-6 by ELISA; read-out: IL17AA + TNF IC50 IL-6
One threshold, 20 nM, splits the recorded IC50 values: lower ones are rule met, equal or higher ones are rule not met.

molecule | categoryLabel
Cc1cc[n+]([O-])c(C)c1-c1ccc(NC(=O)C(NC(=O)c2ccc3n2CCN(C)C3)C2CCC(C(F)(F)F)CC2)cc1 (stereo not drawn) | rule met
Cc1c(-c2ccc(NC(=O)[C@@H](NC(=O)c3ccnn3C)C3CCCCC3)c(F)c2)c(Cl)cc[n+]1[O-] | rule not met
Cc1c[n+]([O-])cc(C)c1-c1ccc(NC(=O)[C@@H](NC(=O)c2ccnn2C)C2CCCCCC2)cc1 | rule not met
Cc1cc[n+]([O-])c(C)c1-c1ccc(NC(=O)[C@@H](NC(=O)c2ccc3n2CCN(C)C3)C2CCCCC2)cc1 | rule met

Quick check: does "Cc1c(-c2ccc(NC(=O)[C@@H](NC(=O)c3ccnn3C)C3CCCCC3)cc2)c(C(F)(F)F)cc[n+]1[O-]" have IC50 under 20 nM? rule met

Dear reviewer, please state whether "Cc1c(-c2ccc(NC(=O)[C@@H](NC(=O)c3ccnn3CCN(C)C)C3CCCCC3)cc2F)c(Cl)cc[n+]1[O-]" has IC50 strictly beneath 20 nM. rule not met

---

Listing of recorded pIC50 by entry.
testTarget: biotinylated human IL-17A / AF647-labeled human IL-17RA (Homo sapiens, UniProt Q16552)
Sequence (Q16552 24-155): as above
experimentSummary: Human IL-17A×IL-17RA TR-FRET assay
Format: binding
settings: TR-FRET, 5 nM IL-17A, 30 nM IL-17RA; reference examples (pyridines); read-out: IL17AA FRET/ IL17RAwt IC50
Method: Human IL-17A×IL-17RA TR-FRET Assay Each compound concentration is tested in duplicate. The final total assay volume is 10 μL. Each plate contains test compounds in columns 1-22 and controls in columns 23 and 24. The neutral control (NC) contains all the assay components, but DMSO instead of test compound. […] The fluorescence values for emission at 615 nm and 665 nm are loaded to the evaluation software Helios. […]
# pIC50 is unitless: minus log10 of the molar concentration; print number only

Take a look at these entries with their results.
compound | pIC50
Cc1ccnc(C)c1-c1ccc(NC(=O)[C@@H](NC(=O)c2ccnn2C)[C@@H]2CC=C(F)CC2)cc1 [compound 144, reference compound] | 5.38
CCc1nocc1C(=O)N[C@H](C(=O)Nc1ccc(-c2c(C(F)(F)F)ccnc2C)cc1)C1CCCC1 [compound 139, reference compound] | 6.05

Entry Cc1ccnc(C)c1-c1ccc(NC(=O)[C@@H](NC(=O)c2ccnn2C)[C@H]2CCCc3ccccc32)cc1 [compound 136, reference compound] , pIC50 reported as 6.93

---

testTarget: recombinant human IL-17AA (Homo sapiens, UniProt Q16552)
experimentSummary: IL-6 release from NHDF cells, IL-17AA plus TNF-α stimulation
Assay type: cell-based
settings: NHDF cells, IL-17AA 30 pM + TNF-α 6 pM, 24 hours, IL-6 by ELISA; reference examples (pyridines); read-out: IL 17AA + TNF IC50 IL-6
Lab note: anything with IC50 below 0.6 µM is marked rule met; values at 0.6 µM or higher are marked rule not met.

Sample answers from the record:
molecule | categoryLabel
Cc1nccc(Cl)c1-c1ccc(NC(=O)[C@@H](NC(=O)c2ccnn2C)C2CCCCC2)cc1F [compound 137, reference compound] | rule met
CCc1nocc1C(=O)N[C@H](C(=O)Nc1ccc(-c2c(C(F)(F)F)ccnc2C)cc1)C1CCCC1 [compound 139, reference compound] | rule met
Cc1ccnc(C)c1-c1ccc(NC(=O)[C@@H](NC(=O)c2ccnn2C)[C@@H]2CC=C(F)CC2)cc1 [compound 144, reference compound] | rule not met
Cc1ccnc(C)c1-c1ccc(NC(=O)[C@@H](NC(=O)c2ccnn2C)[C@H]2CC[C@H](C)CC2)cc1 [compound 138, reference compound] | rule met

Threshold test, IC50 < 0.6 µM: Cc1ccnc(C)c1-c1ccc(NC(=O)[C@@H](NC(=O)c2ccnn2C)[C@H]2CCCc3ccccc32)cc1 [compound 136, reference compound] rule met

---

testTarget: biotinylated human IL-17A / AF647-labeled human IL-17RA (Homo sapiens)
experimentSummary: Human IL-17A×IL-17RA TR-FRET assay
Type: binding
settings: TR-FRET, 5 nM IL-17A, 30 nM IL-17RA; read-out: IL17AA FRET/ IL17Rawt IC50
readoutKind: IC50
Give the number first and the unit second.

Some compounds with recorded IC50:
compound | readoutKind | result
CC(=O)N1CCn2c(ccc2C(=O)N[C@H](C(=O)Nc2ccc(-c3c(C(F)(F)F)cc[n+]([O-])c3C)cc2)C2CCC(F)(F)CC2)C1 | IC50 | 0.478 µM
Cc1cc[n+]([O-])c(C)c1-c1ccc(NC(=O)[C@H](Cc2ccccc2F)NC(=O)c2ccnn2C)cc1 | IC50 | 1.1 µM
CC(=O)N1CCn2c(ccc2C(=O)N[C@H](C(=O)Nc2ccc(-c3c(C(F)(F)F)cc[n+]([O-])c3C)cc2)C2CCCCC2)C1 | IC50 | 0.128 µM

Reported IC50 for Cc1cc[n+]([O-])c(C)c1-c1ccc(NC(=O)C(NC(=O)c2ccnn2C(C)C)C2CCCC(F)(F)C2)cc1 (stereo not shown) was 0.13 µM

What the record says about "CC(=O)N1CCn2c(ccc2C(=O)N[C@H](C(=O)Nc2ccc(-c3c(C)cc[n+]([O-])c3C)cc2F)C2CCCCCC2)C1" : IC50 is 0.178 µM

Reported IC50 for "Cc1cc[n+]([O-])c(C)c1-c1ccc(NC(=O)[C@H](Cc2ccccc2Cl)NC(=O)c2ccc3n2CCNC3)cc1" was 0.123 µM

Documented IC50 of "Cc1cc[n+]([O-])c(C)c1-c1ccc(NC(=O)[C@H](Cc2ccccc2Cl)NC(=O)c2ccnn2C)cc1" : 0.052 µM

Entry "COCc1nocc1C(=O)N[C@H](C(=O)Nc1ccc(-c2cc(Cl)c[n+]([O-])c2C)cc1)C1CCC(F)(F)CC1" , IC50 reported as 1.61 µM

The compound listed as "Cc1cc[n+]([O-])c(C)c1-c1ccc(NC(=O)[C@@H](NC(=O)c2ccc3n2CCNC3)[C@H]2CCCC(F)(F)C2)cc1" has a reported IC50 of 0.316 µM

Entry under test: "Cc1c(-c2ccc(NC(=O)[C@@H](NC(=O)c3ccc4n3CCNC4)C3CCCCC3)cc2)c(Cl)cc[n+]1[O-]" . Its IC50 was 0.296 µM

IC50 in this record for "Cc1cc[n+]([O-])c(C)c1-c1ccc(NC(=O)[C@@H](NC(=O)c2ccc3n2CCN(C)C3)C2CCC(F)(F)CC2)cc1" : 0.26 µM

Lab note: CCn1nccc1C(=O)N[C@H](C(=O)Nc1ccc(-c2c(C(F)(F)F)cc[n+]([O-])c2C)cc1)C1CC2CC2C1 (stereo partly shown) gave IC50 of 9.08 µM

Lab book: IC50 of Cc1c(-c2ccc(NC(=O)C(NC(=O)c3ccc4n3CCNC4)[C@@H]3C[C@@H]4[C@H](C3)C4(F)F)cc2)c(Cl)cc[n+]1[O-] (stereo partly shown) noted as 0.499 µM

---

Quick reference for pIC50 among some molecules
testTarget: biotinylated human IL-17A / AF647-labeled human IL-17RA (Homo sapiens)
experimentSummary: Human IL-17A×IL-17RA TR-FRET assay
Assay type: binding
settings: TR-FRET, 5 nM IL-17A, 30 nM IL-17RA; read-out: IL17AA FRET/ IL17Rawt IC50
Schema: pIC50 number; meaning minus log10 of the concentration expressed in molar units.

Before answering, review these 5 worked examples.
molecule | readoutKind | quantitativeResult
Cc1cc[n+]([O-])c(C)c1-c1ccc(NC(=O)C(NC(=O)c2ccnn2C)C2CC(F)CC(F)C2)cc1 (stereo not shown) | pIC50 | 5.14
CCn1nccc1C(=O)NC(C(=O)Nc1ccc(-c2c(Cl)cc[n+]([O-])c2C)cc1)C1CC2CC2C1 (single isomer, unassigned) [Example 209] | pIC50 | 6.42
Cc1cc[n+]([O-])c(C)c1-c1ccc(NC(=O)C(NC(=O)c2conc2C)C(C)c2ccccc2Cl)cc1 (stereo not shown) | pIC50 | 7.14
Cc1nocc1C(=O)NC(C(=O)Nc1ccc(-c2c(Cl)cc[n+]([O-])c2C)cc1)C1CC2CC2C1 (single isomer, unassigned) [Example 198] | pIC50 | 6.65
Cc1c(-c2ccc(NC(=O)C(NC(=O)c3ccc4n3CCN(C)C4)C3CC4CC4C3)cc2F)c(Cl)cc[n+]1[O-] (stereo not shown) | pIC50 | 6.59

The molecule Cc1cc[n+]([O-])c(C)c1-c1ccc(NC(=O)C(NC(=O)c2ccc3n2CCNC3)C2CC3CC3C2)cc1 (stereo not shown) [Example 204] showed pIC50 equal to 6.56
